// values below are reported growth
Tested on: LOX IMVI melanoma
Assay: NCI-60 one-dose screen, 48 h (100 = growth as untreated, 0 = no growth, -100 = all killed)
Conditions: 10 µM unless noted
Compounds without any hit were thinned out: in the full panel of roughly 83,000, 20% have a hit. Activity calls are given as the source filed them. The calls were made as follows: active = growth percent below 10; inactive = the rest.
READOUT TYPE: growth

MOLECULE | READOUT TYPE | OBSERVED MEASUREMENT
CN1CCN(Cc2ccc(NC(=O)c3cncc(C#Cc4ncc5cnccn45)c3)cc2C(F)(F)F)CC1 | growth | 26.5% (inactive)
Cc1c(O)c(=O)n(-c2ccccc2)n1C | growth | 105% (inactive)
COC1=CC(c2ccc[nH]2)=N/C1=C\c1[nH]c(C)c(C(=O)CCCCCCCCC(=O)O[C@H]2CC[C@H]3C4CCc5cc(O)ccc5C4CC[C@]23C)c1C (stereo not given in full) | growth | -44.2% (active)
CCCCn1c(C)nc2cc(Nc3nc(Cl)nc4nc[nH]c34)ccc21 | growth | 90.4% (inactive)
COc1ccc2[nH]c(O)c(/C=c3/ccc4c(c3)N=C(c3ccc(F)cc3)N=4)c2c1 | growth | 16.3% (inactive)

Origin of measurements: PubChem BioAssay (NCI)
